- Protocol Text: Antioxidant activity assessed as galvinoxyl radical scavenging activity at 10 uM after 19 hrs by UV spectrophotometric analysis
- Format: physicochemical
Quick list: Activity per entry.
Please report the result as a number followed by the unit.

Known Activity results, listed for orientation:
> print(dat)
                           smiles.structure  meas.value
1  COc1cc(/C=C/C(=O)N(Cc2cccc3[nH]c4ccccc4c23)C2CCCC2)ccc1O       66.6%
2  COc1cc(/C=C/C(=O)N(Cc2cccc3[nH]c4ccccc4c23)C(C)C)ccc1O         68%
3  CCN(Cc1cccc2[nH]c3ccccc3c12)C(=O)/C=C/c1ccc(O)c(OC)c1         55%
4  CCN(Cc1cccc2[nH]c3cc(Cl)ccc3c12)C(=O)/C=C/c1ccc(O)c(OC)c1       38.1%

Let us move to another entry and its Activity.
Item `COc1ccc2c(c1)[nH]c1cccc(CN(C(=O)/C=C/c3ccc(O)c(OC)c3)C3CCCCC3)c12` : provide Activity
50.9%

----------
Quick list: Activity per entry.
- Protocol Text: Antioxidant activity assessed as galvinoxyl radical scavenging activity at 2 uM after 19 hrs by UV spectrophotometric analysis
- Assay type: physicochemical

Known Activity results, listed for orientation:
> print(dat)
                                   molecule  meas.value
1  CCN(Cc1cccc2[nH]c3ccccc3c12)C(=O)/C=C/c1ccc(O)c(OC)c1       40.1%
2  CCN(Cc1cccc2[nH]c3cc(OC)ccc3c12)C(=O)/C=C/c1ccc(O)c(OC)c1       29.2%
3  COc1cc(/C=C/C(=O)N(Cc2cccc3[nH]c4ccccc4c23)C2CCCC2)ccc1O       54.5%

Item `COc1cc(/C=C/C(=O)N(Cc2cccc3[nH]c4ccccc4c23)C(C)C)ccc1O` : provide Activity
55.2%

Item COc1cc(/C=C/C(=O)O)ccc1O [FERULATE] : provide Activity
15.8%

Item `COc1cc(/C=C/C(=O)N(Cc2cccc3[nH]c4ccccc4c23)C2CCCCC2)ccc1O` : provide Activity
12.4%

Item `COc1ccc2c(c1)[nH]c1cccc(CN(C(=O)/C=C/c3ccc(O)c(OC)c3)C3CCCC3)c12` : provide Activity
24%
